# Read-out: 3-Hydroxy-3-Methylglutaryl-CoA Synthase 2 (HMGCS2), HMGCS2 (gene 3158)
# measurement protocol: LTEA_HepaRG_HMGCS2: Life Technologies and Expression Analysis (LTEA) Assay for 3-Hydroxy-3-Methylglutaryl-CoA Synthase 2 (HMGCS2) using HepaRG (AID 2283504)
# run conditions: mRNA level, 48 h; actives raise or lower the signal
Active and inactive are the calls of the source. How the source made its calls: active means hit-call score of the fitted dose curve at least 0.9, where 1 is the maximum; inactive means score below 0.9.
The reply should be one of these categories: Yes (active), No (inactive)

[Q] Which outcome was entered for the molecule `CCCCN(CC)c1c([N+](=O)[O-])cc(C(F)(F)F)cc1[N+](=O)[O-]` in this test?
[A] No

[Q] Which outcome was entered for the molecule `C[Si](Cn1cncn1)(c1ccc(F)cc1)c1ccc(F)cc1` in this test?
[A] Yes

[Q] Which outcome was entered for the molecule `CNC(=O)ON=C(C)SC` in this test?
[A] No

[Q] Which outcome was entered for the molecule `O=[N+]([O-])c1cc(C(F)(F)F)c(Cl)c([N+](=O)[O-])c1Nc1ncc(C(F)(F)F)cc1Cl` in this test?
[A] Yes

[Q] Which outcome was entered for the molecule CCOP(=S)(OCC)OC(Cl)C(Cl)(Cl)Cl (stereo not drawn) in this test?
[A] No

[Q] Which outcome was entered for the molecule `CCOC(=O)COc1cc(-c2nn(C)c(OC(F)F)c2Cl)c(F)cc1Cl` in this test?
[A] No

[Q] Which outcome was entered for the molecule `CCOP(=S)(OCC)Oc1ccc2c(C)c(Cl)c(=O)oc2c1` in this test?
[A] Yes

[Q] Which outcome was entered for the molecule `CC(C)[C@H](C(=O)O[C@H](C#N)c1cccc(Oc2ccccc2)c1)c1ccc(Cl)cc1` in this test?
[A] No

[Q] Which outcome was entered for the molecule `N#CSCSC#N` in this test?
[A] Yes

[Q] Which outcome was entered for the molecule COP(=O)(OC)OC(Br)C(Cl)(Cl)Br (stereo not drawn) in this test?
[A] No

[Q] Which outcome was entered for the molecule CCOP(=O)(SC(C)CC)N1CCSC1=O (stereo not drawn) in this test?
[A] Yes

[Q] Which outcome was entered for the molecule CC(Oc1cccc(Cl)c1)C(=O)O (stereo not drawn) in this test?
[A] No

[Q] Which outcome was entered for the molecule `CC(=NC#N)N(C)Cc1ccc(Cl)nc1` in this test?
[A] No

[Q] Which outcome was entered for the molecule `C[N+]1(C)CCCCC1` in this test?
[A] No

[Q] Which outcome was entered for the molecule CCc1cccc(C)c1N(C(=O)CCl)C(C)COC (stereo not drawn) in this test?
[A] No

[Q] Which outcome was entered for the molecule `S=C1NCCN1` in this test?
[A] No

[Q] Which outcome was entered for the molecule `Nc1c(Cl)cc([N+](=O)[O-])cc1Cl` in this test?
[A] Yes

[Q] Which outcome was entered for the molecule `O=c1ccc(=O)[nH][nH]1` in this test?
[A] No

---

# measurement protocol: ATG_BRE_CIS: Attagene CIS-FACTORIAL HepG2 Assay for human Bone Morphogenetic Protein (BMP) Response Element (BRE) (AID 2282933)
# run conditions: HepG2 BMP response element reporter, Attagene transcription factor profiling; actives raise or lower the signal
The source made the active and inactive calls. How the source made its calls: active means hit-call score of the fitted dose curve at least 0.9, where 1 is the maximum; inactive means score below 0.9.
readout kind: AC50

# compound, AC50
records = [
    ("CC(=NC#N)N(C)Cc1ccc(Cl)nc1", "inactive"),
    ("CC[C@H](C)[C@H]1O[C@]2(C=C[C@@H]1C)C[C@@H]1C[C@@H](C/C=C(\\C)[C@@H](O[C@H]3C[C@H](OC)[C@@H](O[C@H]4C[C@H](OC)[C@@H](NC)[C@H](C)O4)[C@H](C)O3)[C@@H](C)/C=C/C=C3\\CO[C@@H]4[C@H](O)C(C)=C[C@@H](C(=O)O1)[C@]34O)O2", "inactive"),
    ("C[Si](Cn1cncn1)(c1ccc(F)cc1)c1ccc(F)cc1", "39.1 µM (active)"),
    ("COP(=O)(OC)SCn1c(=O)oc2cc(Cl)cnc21", "inactive"),
    ("CCOP(=S)(OCC)Oc1cc(C)nc(C(C)C)n1", "inactive"),
]

[Q] Please indicate AC50 recorded for CCC(=NOC/C=C/Cl)C1=C(O)CC(C2CCOCC2)CC1=O (centres undefined)
[A] inactive

[Q] Please indicate AC50 recorded for `Cc1ccn2nc(S(=O)(=O)Nc3c(F)cccc3F)nc2n1`
[A] inactive

[Q] Please indicate AC50 recorded for `CCC(=O)Nc1ccc(Cl)c(Cl)c1`
[A] inactive

[Q] Please indicate AC50 recorded for CCOC(=O)CC(SP(=O)(OC)OC)C(=O)OCC (centres undefined)
[A] inactive

[Q] Please indicate AC50 recorded for `Nc1nc(N)nc(NC2CC2)n1`
[A] inactive

[Q] Please indicate AC50 recorded for `COc1ccc(C(=CC(=O)N2CCOCC2)c2ccc(Cl)cc2)cc1OC`
[A] 11.9 µM (active)

[Q] Please indicate AC50 recorded for `CNc1cnn(-c2cccc(C(F)(F)F)c2)c(=O)c1Cl`
[A] 17.8 µM (active)

[Q] Please indicate AC50 recorded for `Cc1nn(-c2cc(NS(C)(=O)=O)c(Cl)cc2Cl)c(=O)n1C(F)F`
[A] inactive

[Q] Please indicate AC50 recorded for `CSc1nc(NC(C)C)nc(NC(C)C)n1`
[A] inactive

[Q] Please indicate AC50 recorded for `CCNc1nc(Cl)nc(NC(C)(C)C#N)n1`
[A] inactive

[Q] Please indicate AC50 recorded for CCOP(=O)(SC(C)CC)N1CCSC1=O (centres undefined)
[A] inactive

[Q] Please indicate AC50 recorded for `CCCOCC(=Nc1ccc(Cl)cc1C(F)(F)F)n1ccnc1`
[A] inactive

[Q] Please indicate AC50 recorded for `CCC(CC)Nc1c([N+](=O)[O-])cc(C)c(C)c1[N+](=O)[O-]`
[A] inactive

[Q] Please indicate AC50 recorded for CC(Oc1cccc(Cl)c1)C(=O)O (centres undefined)
[A] inactive

[Q] Please indicate AC50 recorded for `C=C(C)[C@H]1Cc2c(ccc3c2O[C@@H]2COc4cc(OC)c(OC)cc4[C@@H]2C3=O)O1`
[A] 0.0104 µM (active)

[Q] Please indicate AC50 recorded for CCc1cccc(C)c1N(C(=O)CCl)C(C)COC (centres undefined)
[A] inactive

[Q] Please indicate AC50 recorded for CCOP(=S)(OCC)OC(Cl)C(Cl)(Cl)Cl (centres undefined)
[A] inactive

[Q] Please indicate AC50 recorded for CC(COc1ccc(Oc2ccccc2)cc1)Oc1ccccn1 (centres undefined)
[A] inactive

[Q] Please indicate AC50 recorded for `CNC(=O)ON=C(C)SC`
[A] inactive

[Q] Please indicate AC50 recorded for `CN(C)C(=O)Nc1cccc(C(F)(F)F)c1`
[A] inactive

[Q] Please indicate AC50 recorded for COP(=O)(NC(C)=O)SC (centres undefined)
[A] inactive

[Q] Please indicate AC50 recorded for `CSc1nnc(C(C)(C)C)c(=O)n1N`
[A] inactive

[Q] Please indicate AC50 recorded for `CCOP(=S)(OCC)SCCSCC`
[A] inactive

[Q] Please indicate AC50 recorded for `CCc1cccc(CC)c1N(COC)C(=O)CCl`
[A] inactive
